Target: T1, His-tagged P3028 peptide (PGE73) (human)
T1 construct: also called His-tag-P3028; not shown: His-tag
T1 peptide: VFDEFKPLVEEPQNLIK
Test: PEPSCAN ELISA; peptide on card, His-tagged P3028 in solution;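 note: bound protein detected by peroxidase colour with ABTS substrate, imaged on the peptide card by CCD camera at 405 nm, rampo units being raw OD405 readings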
Label key: class 1 means RAMPO Score under 200 rampo units; class 0 means RAMPO Score of 200 rampo units or more.

- BINDER: "KKLDTFFMKLSLFTER (P28R variant on PEPSCAN card) [SEQ ID NO: 540]"
  GROUP LABEL: "class 0"
- BINDER: "KKLDTFFVKLLLFTER (P28R variant on PEPSCAN card) [SEQ ID NO: 548]"
  GROUP LABEL: "class 0"
- BINDER: "KKLDTFFVKLSLFTED (P28R variant on PEPSCAN card) [SEQ ID NO: 572]"
  GROUP LABEL: "class 1"
- BINDER: "KKLDTFFVKLSLFTEE (P28R variant on PEPSCAN card) [SEQ ID NO: 577]"
  GROUP LABEL: "class 1"
- BINDER: "KKLDTFFVKLSLFTTR (P28R variant on PEPSCAN card) [SEQ ID NO: 568]"
  GROUP LABEL: "class 1"
- BINDER: "KKLDTFFVKDSLFTER (P28R variant on PEPSCAN card) [SEQ ID NO: 578]"
  GROUP LABEL: "class 1"
- BINDER: "KKLDTFFVKLSLFTAR (P28R variant on PEPSCAN card) [SEQ ID NO: 561]"
  GROUP LABEL: "class 1"
- BINDER: "KKLDTFFVKLSLFTEI (P28R variant on PEPSCAN card) [SEQ ID NO: 558]"
  GROUP LABEL: "class 1"
- BINDER: "KKLDTFFVCLSLFTER (P28R variant on PEPSCAN card) [SEQ ID NO: 541]"
  GROUP LABEL: "class 0"
- BINDER: "KKLDTFFYKLSLFTER (P28R variant on PEPSCAN card) [SEQ ID NO: 549]"
  GROUP LABEL: "class 0"
- BINDER: "KKLDTFFVKLSDFTER (P28R variant on PEPSCAN card) [SEQ ID NO: 580]"
  GROUP LABEL: "class 1"
- BINDER: "KKLDTEFVKLSLFTER (P28R variant on PEPSCAN card) [SEQ ID NO: 536]"
  GROUP LABEL: "class 0"
- BINDER: "KKLDTFFVKLSLFDER (P28R variant on PEPSCAN card) [SEQ ID NO: 567]"
  GROUP LABEL: "class 1"
- BINDER: "KKLDTFFWKLSLFTER (P28R variant on PEPSCAN card) [SEQ ID NO: 537]"
  GROUP LABEL: "class 0"
- BINDER: "KKLDTFFSKLSLFTER (P28R variant on PEPSCAN card) [SEQ ID NO: 545]"
  GROUP LABEL: "class 0"
- BINDER: "KKLDTFFVKLSLKTER (P28R variant on PEPSCAN card) [SEQ ID NO: 542]"
  GROUP LABEL: "class 0"
- BINDER: "KKLDTFFVKLSEFTER (P28R variant on PEPSCAN card) [SEQ ID NO: 581]"
  GROUP LABEL: "class 1"
- BINDER: "KKLDTFFVGLSLFTER (P28R variant on PEPSCAN card) [SEQ ID NO: 97]"
  GROUP LABEL: "class 1"
- BINDER: "KKLDTFFHKLSLFTER (P28R variant on PEPSCAN card) [SEQ ID NO: 547]"
  GROUP LABEL: "class 0"
